System: Vero E6
Assay: cell viability relative to DMSO; higher = less toxic
Details: 72 h; 1000 nM
Property: cell viability (%)
Enter your answer as a number in %; do not include the unit.

Past entries and their recorded results:
- Compound: "NC[C@@H]1CC[C@@H](N)[C@@H](O[C@H]2[C@H](O)[C@@H](O[C@H]3O[C@H](CO)[C@@H](O)[C@H](N)[C@H]3O)[C@H](N)C[C@@H]2N)O1"
  Measurement target: "Vero E6"
  Data value: 101
- Compound: "CC(=O)Oc1ccc(C(c2ccc(OC(C)=O)cc2)c2ccccn2)cc1"
  Measurement target: "Vero E6"
  Data value: 95.7
- Compound: "C[C@@H]1CN(Cc2ccc(F)cc2)[C@@H](C)CN1C(=O)c1cc2c(C(=O)C(=O)N(C)C)cn(C)c2cc1Cl"
  Measurement target: "Vero E6"
  Data value: 84.6
- Compound: "Cc1cc(Nc2ncnc3ccc(NC4=NC(C)(C)CO4)cc23)ccc1Oc1ccn2ncnc2c1"
  Measurement target: "Vero E6"
  Data value: 86.9
- Compound: "CC(=O)O[C@]1(C(C)=O)CC[C@H]2[C@@H]3C=C(C)C4=CC(=O)CC[C@@H]4[C@H]3CC[C@@]21C [nomegestrol-acetate]"
  Measurement target: "Vero E6"
  Data value: 98.6

The reported value for C[C@H](CCC(=O)NCCS(=O)(=O)O)[C@H]1CC[C@H]2[C@@H]3[C@@H](O)C[C@@H]4C[C@H](O)CC[C@]4(C)[C@H]3CC[C@]12C in terms of cell viability is 101

Entry NS(=O)(=O)c1cc2c(cc1C(F)(F)F)NCNS2(=O)=O [hydroflumethiazide] ; cell viability = 97.2

Form field cell viability, entry CC1=C(C(=O)O)N2C(=O)[C@@H](NC(=O)[C@H](N)c3ccc(O)cc3)[C@H]2SC1 : 98.1

cell viability reported for this compound CNC(=O)c1cc(Oc2ccc(NC(=O)Nc3ccc(Cl)c(C(F)(F)F)c3)c(F)c2)ccn1 : 102

Lab note: CC[C@@]1(O)C(=O)OCc2c1cc1n(c2=O)Cc2cc3cc(O)ccc3nc2-1 [10-hydroxycamptothecin] gave cell viability of 59.9

====

Tested on: HepG2
Test: cell viability relative to DMSO; higher = less toxic
Conditions: 72 h; 10 nM
Property: cell viability (%)
Report as a plain number; the unit % is understood.

Previously resolved entries follow.
- Molecule: "CC1=C(C)C(=O)C(C(CCCCCC(=O)O)c2ccccc2)=C(C)C1=O (stereo unspecified)"
  cell viability [%]: 98.7
- Molecule: "Cc1ccc2c(c1CCC(=O)O)CC[C@@H](NS(=O)(=O)c1ccc(Cl)cc1)C2"
  cell viability [%]: 90.7
- Molecule: "CN1C(=O)CCS(=O)(=O)C1c1ccc(Cl)cc1 (stereo unspecified)"
  cell viability [%]: 97.7
- Molecule: "CCNC(=O)NS(=O)(=O)c1sc(CC(C)C)cc1-c1ccc(Cn2c(-c3ccccc3)nc(OC)c2C=O)cc1"
  cell viability [%]: 99.6
- Molecule: "CN[C@H](CNC(=O)N1CCC[C@@H]([C@@H](OCCNC(=O)OC)c2cccc(Cl)c2)C1)C[C@H]1CCCOC1"
  cell viability [%]: 108

Consider CN/C(=N\S(=O)(=O)c1ccc(Cl)cc1)N1C[C@H](c2ccccc2)C(c2ccc(Cl)cc2)=N1 (racemic) [SLV-319-(+/-)] . Its measured cell viability is 94.2

Notebook: O[C@H]([C@H](O)[C@@H]1CO1)[C@H]1CO1 [dianhydrogalactitol] , cell viability read as 101

Value of measured cell viability for the entry O=C(c1ccc(C(=O)N2CCC(N3CCCC3)CC2)c(Nc2ccccc2)c1)N1CCC(N2CCCC2)CC1 : 99.2

Short answer for Nc1cc(F)ccc1NC(=O)/C=C/c1cnn(C/C=C/c2ccccc2)c1 : cell viability was 105

Entry CCCCCCCCCCCCCCCCCCCCCC(=O)O — recorded cell viability = 94.8

Recorded result, Cc1coc2c1C(=O)C(=O)c1c-2ccc2c1CCCC2(C)C , cell viability: 105

====

Tested on: U2OS
Assay: drug sensitivity score (DSS) for viability; higher = more toxic; extreme values may be limits of the assay
Conditions: 72 h
Each entry below lists one item and its recorded drug sensitivity score value.
No unit in the answer, please; the number alone is enough.

Known results for compounds:
- Compound: "COc1nccc(-c2c(-c3ccc(F)cc3)ncn2[C@H]2CC[C@H](O)CC2)n1"
  Measurement target: "U2OS"
  drug sensitivity score: 0
- Compound: "CC[C@H](CO)Nc1nc(NCc2ccc(-c3ccccn3)cc2)c2ncn(C(C)C)c2n1 [CR8-(R)]"
  Measurement target: "U2OS"
  drug sensitivity score: 17.9
- Compound: "O=C(O)CCCNC(=O)c1cccnc1 [pikamilone]"
  Measurement target: "U2OS"
  drug sensitivity score: 0
- Compound: "CCCCN(CCCC)CCC(O)c1cc2c(Cl)cc(Cl)cc2c2cc(C(F)(F)F)ccc12 (stereo unspecified) [halofantrine]"
  Measurement target: "U2OS"
  drug sensitivity score: 0.2
- Compound: "O=C(Nc1ccc(C(F)(F)F)cn1)N1CCN(c2ncccc2C(F)(F)F)CC1"
  Measurement target: "U2OS"
  drug sensitivity score: 0
- Compound: "Cn1cc(-c2ccc3nnc(Sc4ccc5ncccc5c4)n3n2)cn1 [SGX523]"
  Measurement target: "U2OS"
  drug sensitivity score: 0
- Compound: "CC1=C(/C=C/C(C)=C/C=C/C(C)=C/C(=O)O)C(C)(C)CCC1 [tretinoin]"
  Measurement target: "U2OS"
  drug sensitivity score: 0
- Compound: "COc1ccc(CCNCC(O)COc2cccc(C)c2)cc1OC (stereo unspecified) [bevantolol]"
  Measurement target: "U2OS"
  drug sensitivity score: 0

Input C=CC[C@]1(O)CC[C@H]2[C@@H]3CCC4=CC(=O)CCC4=C3C=C[C@@]21C [altrenogest] . Output drug sensitivity score: 0

Looking up CC(C)Oc1ccc(Cc2ccc(NC3=NCCN3)cc2)cc1 , I see its drug sensitivity score listed as 0

The compound listed as CN1CCC(c2c[nH]c3ccc(O)cc23)CC1 shows drug sensitivity score equal to 0

====

System: Caco-2
Test: cell viability relative to DMSO; higher = less toxic
Details: 72 h; 10 nM
Property: cell viability (%)
Reply with just the number (in %).

Example entries and their recorded answers appear below.
- Compound: "O=C(O)Cc1cccnc1C(=O)O"
  Unit annotation: "%"
  cell viability: 104
- Compound: "CC(=O)OCC(=O)[C@@]1(OC(C)=O)[C@@H](C)C[C@H]2[C@@H]3C[C@H](F)C4=CC(=O)C=C[C@]4(C)[C@@]3(F)[C@@H](O)C[C@@]21C [diflorasone-diacetate]"
  Unit annotation: "%"
  cell viability: 106

Form: compound = CCC[C@H](N[C@@H](C)C(=O)N1[C@H](C(=O)O)C[C@@H]2CCCC[C@@H]21)C(=O)OCC ; cell viability = 99.9

====

Catalogue of cell viability readings, one per entry.
System: Vero E6
Test: cell viability relative to DMSO; higher = less toxic
Details: 72 h; 1 nM
Use % as the unit, but write only the number.

# annotated cases, reported cell viability shown
- Compound string: "CCN(Cc1ccc(Cl)nc1)/C(=C/[N+](=O)[O-])NC"
  Measurement target: "Vero E6"
  cell viability, %: 103
- Compound string: "CC[C@H](C)C[C@H](C)CCCCCCCCC(=O)N[C@H]1C[C@@H](O)[C@@H](NCCN)NC(=O)[C@@H]2[C@@H](O)CCN2C(=O)[C@H]([C@H](O)CCN)NC(=O)[C@H]([C@H](O)[C@@H](O)c2ccc(O)cc2)NC(=O)[C@@H]2C[C@@H](O)CN2C(=O)[C@H]([C@@H](C)O)NC1=O"
  Measurement target: "Vero E6"
  cell viability, %: 98.1

Next, consider the following molecule.
Record COC1=C(OC)C(=O)C(CCCCCCCCCCO)=C(C)C1=O , field cell viability: 102

====

Test system: Caco-2
Experiment: cell viability relative to DMSO; higher = less toxic
Conditions: 72 h; 1 nM
Property: cell viability
Be sure to follow the number with its unit.

Looking up CC(C)(C)c1cc(C(C)(C)C)c(NC(=O)c2c[nH]c3ccccc3c2=O)cc1O , I see its cell viability listed as 104%

The reported value for CC[C@H](C)C[C@H](C)CCCCCCCCC(=O)N[C@H]1C[C@@H](O)[C@@H](NCCN)NC(=O)[C@@H]2[C@@H](O)CCN2C(=O)[C@H]([C@H](O)CCN)NC(=O)[C@H]([C@H](O)[C@@H](O)c2ccc(O)cc2)NC(=O)[C@@H]2C[C@@H](O)CN2C(=O)[C@H]([C@@H](C)O)NC1=O in terms of cell viability is 88.2%

Measured cell viability of O=[N+]([O-])c1cc(O)c(O)c([N+](=O)[O-])c1 : 93.2%

Lab book: cell viability of N[C@H](C(=O)O)c1ccc(O)cc1 noted as 94.2%
